Measured values drawn from paper PMC11149885 for this set.

Molecular target: TIE2 (Homo sapiens, UniProt Q02763)
Sequence (Q02763 23-1124): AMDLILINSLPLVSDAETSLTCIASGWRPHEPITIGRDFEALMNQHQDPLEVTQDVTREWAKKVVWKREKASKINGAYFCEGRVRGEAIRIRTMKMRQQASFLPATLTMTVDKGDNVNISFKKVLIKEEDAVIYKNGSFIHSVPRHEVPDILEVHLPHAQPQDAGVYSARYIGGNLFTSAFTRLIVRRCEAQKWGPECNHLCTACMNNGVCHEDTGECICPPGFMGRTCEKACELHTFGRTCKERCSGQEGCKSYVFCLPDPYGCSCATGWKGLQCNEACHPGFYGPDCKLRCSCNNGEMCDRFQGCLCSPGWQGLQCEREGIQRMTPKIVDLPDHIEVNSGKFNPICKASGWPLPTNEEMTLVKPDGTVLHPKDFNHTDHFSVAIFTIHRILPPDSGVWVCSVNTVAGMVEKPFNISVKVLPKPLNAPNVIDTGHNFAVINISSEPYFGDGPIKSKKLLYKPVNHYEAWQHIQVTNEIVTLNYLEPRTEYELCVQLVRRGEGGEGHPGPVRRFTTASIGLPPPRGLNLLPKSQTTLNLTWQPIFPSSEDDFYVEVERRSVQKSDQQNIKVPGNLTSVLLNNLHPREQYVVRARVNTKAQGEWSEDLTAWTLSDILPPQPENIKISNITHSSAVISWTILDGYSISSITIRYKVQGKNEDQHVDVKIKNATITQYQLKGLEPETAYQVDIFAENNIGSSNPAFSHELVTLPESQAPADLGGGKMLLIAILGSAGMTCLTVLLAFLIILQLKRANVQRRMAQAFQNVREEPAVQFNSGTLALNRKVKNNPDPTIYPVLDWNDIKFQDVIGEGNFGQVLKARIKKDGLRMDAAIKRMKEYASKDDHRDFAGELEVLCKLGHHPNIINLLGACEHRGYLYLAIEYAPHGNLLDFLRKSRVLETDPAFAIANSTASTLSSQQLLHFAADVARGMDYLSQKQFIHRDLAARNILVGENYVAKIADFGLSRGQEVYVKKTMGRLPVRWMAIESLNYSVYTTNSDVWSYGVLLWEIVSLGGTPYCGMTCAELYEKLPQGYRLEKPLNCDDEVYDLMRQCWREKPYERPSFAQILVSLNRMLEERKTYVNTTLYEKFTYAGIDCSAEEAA
Experiment: Ten-dose IC50 measurement
Conditions: IC50 TIE2, 10μM ATP, S1 Dataset
measured-property: pIC50
Note on pIC50: it is the negative log10 of concentration, concentration in mol/L.

Sure, the documented pIC50 for `Cc1[nH]c(/C=C2\C(=O)Nc3ccc(F)cc32)c(C)c1C(=O)N[C@H]1CCN(C(=O)N(C)C)C1` is 4.68

* * *

Target: TIE2 (Homo sapiens, UniProt Q02763)
Assay: Ten-dose IC50 measurement
Details: TIE2 IC50, determined by Reaction Biology (US), 10μM ATP
measured-property: pIC50
Note on pIC50: it is the negative log10 of concentration, concentration in mol/L.

Value (pIC50, TIE2 (Homo sapiens, UniProt Q02763)) for record `Cc1[nH]c(/C=C2\C(=O)Nc3ccc(F)cc32)c(C)c1C(=O)N[C@H]1CCN(C(=O)N(C)C)C1` = 4.68
